Hello, the source for this data is ChEMBL document CHEMBL1143182, in case you need it.

assayTarget: Dipeptidyl peptidase 4 (Rattus norvegicus)
Sequence (P14740 whole entry): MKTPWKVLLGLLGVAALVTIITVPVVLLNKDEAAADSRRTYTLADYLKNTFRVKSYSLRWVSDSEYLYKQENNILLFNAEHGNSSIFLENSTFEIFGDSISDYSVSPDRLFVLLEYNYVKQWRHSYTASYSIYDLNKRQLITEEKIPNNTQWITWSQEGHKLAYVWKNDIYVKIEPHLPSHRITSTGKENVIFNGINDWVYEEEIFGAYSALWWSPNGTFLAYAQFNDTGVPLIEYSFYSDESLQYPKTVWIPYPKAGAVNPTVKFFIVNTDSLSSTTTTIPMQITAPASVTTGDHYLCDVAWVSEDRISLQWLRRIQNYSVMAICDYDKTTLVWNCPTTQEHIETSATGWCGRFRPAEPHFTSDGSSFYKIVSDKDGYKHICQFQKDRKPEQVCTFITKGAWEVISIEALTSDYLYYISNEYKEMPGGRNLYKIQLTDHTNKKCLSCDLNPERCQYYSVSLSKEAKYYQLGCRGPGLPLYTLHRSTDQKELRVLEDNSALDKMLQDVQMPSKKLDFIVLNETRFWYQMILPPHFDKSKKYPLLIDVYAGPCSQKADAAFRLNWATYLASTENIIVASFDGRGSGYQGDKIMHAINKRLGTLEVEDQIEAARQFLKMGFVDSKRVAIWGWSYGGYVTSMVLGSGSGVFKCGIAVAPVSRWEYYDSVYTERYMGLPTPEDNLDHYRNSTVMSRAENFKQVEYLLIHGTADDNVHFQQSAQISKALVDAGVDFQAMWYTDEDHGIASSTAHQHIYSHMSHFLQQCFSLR
runDescription: Inhibition of DPP4 in rat plasma by fluorescence assay
Assay type: cell-free
valueKind: pIC50
Give bare numbers, as −log10 of the molar value.

# count of solved cases: 6
// query pIC50 value for entry Cc1nsc(N2CCN(C(=O)[C@@H]3CN[C@H](C(=O)N4CCCC4)C3)CC2)n1
7.24

Moving on to the next compound: O=C([C@@H]1CN[C@H](C(=O)N2CCCC2)C1)N1CCN(c2nc(-c3ccccc3)ns2)CC1
6.82

Moving on to the next compound: Cc1nsc(C2CCN(C(=O)[C@@H]3CN[C@H](C(=O)N4CCCC4)C3)CC2)n1
6.35

Moving on to the next compound: Cc1nc(N2CCN(C(=O)[C@@H]3CN[C@H](C(=O)N4CCCC4)C3)CC2)sc1C
6.29

Moving on to the next compound: Cc1nsc(N2CCN(C(=O)[C@H]3C[C@@H](C(=O)N4CCCC4)N[C@H]3C)CC2)n1
7.16

Moving on to the next compound: CCc1nsc(N2CCN(C(=O)[C@@H]3CN[C@H](C(=O)N4CCCC4)C3)CC2)n1
6.92

Provide pIC50 values for the following items, in order.
1. CCCc1nsc(N2CCN(C(=O)[C@@H]3CN[C@H](C(=O)N4CCCC4)C3)CC2)n1
2. O=C([C@@H]1CN[C@H](C(=O)N2CCCC2)C1)N1CCN(c2nc(C(F)(F)F)ns2)CC1
3. Cc1cnc(N2CCN(C(=O)[C@@H]3CN[C@H](C(=O)N4CCCC4)C3)CC2)s1

6.96
6.85
6.49

====

Would you mind telling me the reported log10 IC50 of each entry?
assayTarget: Dipeptidyl peptidase 4 (Rattus norvegicus)
runDescription: Inhibition of DPP4 in rat plasma by fluorescence assay
On a log10 scale: recorded IC50, unit nM.

# count of solved cases: 3
// query log10 IC50 value for entry COCc1nsc(N2CCN(C(=O)[C@@H]3CN[C@H](C(=O)N4CCCC4)C3)CC2)n1
1.69

Moving on to the next compound: Cc1nc(N2CCN(C(=O)[C@@H]3CN[C@H](C(=O)N4CCCC4)C3)CC2)no1
2.98

Moving on to the next compound: Cc1nsc(N2CCN(C(=O)[C@H]3C[C@@H](C(=O)N4CCSC4)N[C@H]3C)CC2)n1
1.78

Provide log10 IC50 values for the following items, in order.
1. Cc1cc(N2CCN(C(=O)[C@@H]3CN[C@H](C(=O)N4CCCC4)C3)CC2)sn1
2. Cc1ncc(N2CCN(C(=O)[C@@H]3CN[C@H](C(=O)N4CCCC4)C3)CC2)s1
3. Cc1nsc(N2CCCN(C(=O)[C@@H]3CN[C@H](C(=O)N4CCCC4)C3)CC2)n1

[2.38, 2.53, 2.88]

Provide log10 IC50 values for the following items, in order.
1. Cc1nsc(N2CCN(C(=O)[C@@H]3CN[C@H](C(=O)N4CCSC4)C3)CC2)n1
2. O=C([C@@H]1CN[C@H](C(=O)N2CCCC2)C1)N1CCN(c2ncns2)CC1
3. CC(C)c1nsc(N2CCN(C(=O)[C@@H]3CN[C@H](C(=O)N4CCCC4)C3)CC2)n1

1.88
1.65
2.28
